# test: Rat liver microsome stability assay
# Type: in vitro ADME
# condition.parameters: liver microsomes, pH 7.4; rat liver microsome 1 mg/ml, test compound 2 μM, NADPH 1 mM, 37° C.; read-out: Rat Liver Microsome T½
quantity.kind: half-life at 1 h, 2 µM

Illustrative cases are given below, each with its answer.
{"compound": "N#C/C(=C(/O)c1cc(O)c(O)c([N+](=O)[O-])c1)c1ccncn1", "result": "1.06 h"}
{"compound": "N#C/C(=C\\c1cc(O)c(O)c([N+](=O)[O-])c1)C(=O)Nc1nccs1", "result": "1.56 h"}
{"compound": "N#C/C(=C\\c1cc(O)c(O)c([N+](=O)[O-])c1)c1ccncn1", "result": "0.917 h"}
{"compound": "N#C/C(C(=O)Nc1nccs1)=C(/O)c1cc(O)c(O)c([N+](=O)[O-])c1", "result": "19.2 h"}
{"compound": "CCN(CC)C(=O)/C(C#N)=C/c1cc(O)c(O)c([N+](=O)[O-])c1 [Entacapone, entacapone, reference compound]", "result": "0.653 h"}

The reported value for N#C/C(=C\c1cc(O)c(O)c([N+](=O)[O-])c1)c1cnc(C(=O)O)cn1 in terms of half-life at 1 h, 2 µM is 7.22 h

The reported value for N#C/C(=C(/O)c1cc(O)c(O)c([N+](=O)[O-])c1)c1cnc(C(=O)O)cn1 in terms of half-life at 1 h, 2 µM is 10.5 h

The reported value for N#C/C(=C\c1cc(O)c(O)c([N+](=O)[O-])c1)C(=O)N1CCCCC1 in terms of half-life at 1 h, 2 µM is 0.268 h

----------
Recorded pIC50 values for a group of molecules are listed next.
# target.entity: COMT enzyme (Homo sapiens, UniProt P21964)
# Sequence (P21964 1-271): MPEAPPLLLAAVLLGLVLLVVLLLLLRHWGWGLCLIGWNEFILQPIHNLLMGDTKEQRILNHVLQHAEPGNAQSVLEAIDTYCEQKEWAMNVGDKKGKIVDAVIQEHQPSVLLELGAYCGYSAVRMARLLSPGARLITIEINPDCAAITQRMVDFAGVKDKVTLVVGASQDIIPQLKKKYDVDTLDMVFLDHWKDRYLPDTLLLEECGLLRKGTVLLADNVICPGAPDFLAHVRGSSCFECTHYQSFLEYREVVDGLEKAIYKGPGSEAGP
Value format note: pIC50 is -log10 of concentration (mol/L); just state the number.

Illustrative cases are given below, each with its answer.
{"molecule": "CCN(CC)C(=O)/C(C#N)=C(\\O)c1cc(O)c(O)c([N+](=O)[O-])c1", "result": 6.26}
{"molecule": "CCN(CC)C(=O)/C(C#N)=C(\\N)c1cc(O)c(O)c([N+](=O)[O-])c1 [Compound 347N]", "result": 6.67}

Below: the item to evaluate.
The reported value for CCN(CC)C(=O)C(C#N)=C(NC)c1cc(O)c(O)c([N+](=O)[O-])c1 [Compound 347M] in terms of pIC50 is 6.79

----------
# Tested on: COMT enzyme
# test: COMT inhibition assay (reaction kinetic model, esculetin fluorescence)
# Type: biochemical
# condition.parameters: normalized COMT/FTO value: (COMTcompound/FTOcompound)/(COMTentacapone/FTOentacapone)
Rule: Selectivity Index* under 8 gives criterion not met, otherwise criterion met.

Would you please look over these solved cases?
{"compound": "N#C/C(C(=O)N1CCC1)=C(/O)c1cc(O)c(O)c([N+](=O)[O-])c1", "group": "criterion met"}
{"compound": "CCN(CC)C(=O)/C(C#N)=C(\\N)c1cc(O)c(O)c([N+](=O)[O-])c1 [Compound 347N]", "group": "criterion met"}
{"compound": "N#C/C(C(=O)Nc1nccs1)=C(/O)c1cc(O)c(O)c([N+](=O)[O-])c1", "group": "criterion not met"}
{"compound": "N#C/C(=C\\c1cc(O)c(O)c([N+](=O)[O-])c1)c1cnccn1", "group": "criterion met"}

Query string: In plain terms: is recorded Selectivity Index* at least 8 for N#C/C(=C\c1cc(O)c(O)c([N+](=O)[O-])c1)c1cnc(C(=O)O)cn1 ?
Result string: criterion not met

Query string: In plain terms: is recorded Selectivity Index* at least 8 for N#C/C(=C(/O)c1cc(O)c(O)c([N+](=O)[O-])c1)c1cnccn1 ?
Result string: criterion met
